Cited source: patent US11059789B2

Test: in vitro
Format: cell-based
Where a name gives a salt, the structure may show the parent alone.
Examples of molecules with documented IC50 follow.
Expressed in µM, but write only the number.

Use these answered entries as a reference point.
# molecule, measured.attribute, assay.result
rows = [
    ("C[C@@H]1C[C@H]2[C@@H]3CCC4=CC(=O)C=C[C@]4(C)[C@@]3(F)[C@@H](O)C[C@]2(C)[C@@]1(O)C(=O)COC(=O)CCC(=O)OCc1ccc([C@@H](CN)C(=O)Nc2ccc3cnccc3c2)cc1", "IC50", 100),
    ("C[C@@H]1C[C@H]2[C@@H]3CCC4=CC(=O)C=C[C@]4(C)[C@@]3(F)[C@@H](O)C[C@]2(C)[C@@]1(O)C(=O)COC(=O)c1ccc(C(=O)OCc2ccc([C@@H](CN)C(=O)Nc3ccc4cnccc4c3)cc2)cc1 [Example 66, dihydrochloride]", "IC50", 100),
    ("C[C@@H]1C[C@H]2[C@@H]3CCC4=CC(=O)C=C[C@]4(C)[C@@]3(F)[C@@H](O)C[C@]2(C)[C@@]1(O)C(=O)COC(=O)C[C@H](N)C(=O)OCc1ccc([C@@H](CN)C(=O)Nc2ccc3cnccc3c2)cc1 [Example 83, trihydrochloride]", "IC50", 100),
]

What value of measured IC50 is listed for C[C@@H]1C[C@H]2[C@@H]3CCC4=CC(=O)C=C[C@]4(C)[C@@]3(F)[C@@H](O)C[C@]2(C)[C@@]1(O)C(=O)COC(=O)C1CC1C(=O)OCc1ccc([C@@H](CN)C(=O)Nc2ccc3cnccc3c2)cc1 (some centres unmarked) ?
100

What value of measured IC50 is listed for CC1(C)O[C@@H]2C[C@H]3[C@@H]4CCC5=CC(=O)C=C[C@]5(C)[C@@]4(F)[C@@H](O)C[C@]3(C)[C@]2(C(=O)COC(=O)CCC(=O)OCc2ccc([C@@H](CN)C(=O)Nc3ccc4cnccc4c3)cc2)O1 ?
55.2

###

System: PTM
Test: PTM assay
Format: cell-based
Details: HCl salt
Where a name gives a salt, the structure may show the parent alone.
Examples of compounds with documented pIC50 follow.
Lab note: report pIC50 as minus log10 of the concentration in molar units, number only.

Use these answered entries as a reference point.
# compound, measured.attribute, assay.result
rows = [
    ("C[C@@H]1C[C@H]2[C@@H]3CCC4=CC(=O)C=C[C@]4(C)[C@@]3(F)[C@@H](O)C[C@]2(C)[C@@]1(O)C(=O)COC(=O)c1ccc(C(=O)OCc2ccc([C@@H](CN)C(=O)Nc3ccc4cnccc4c3)cc2)cc1 [Example 66, dihydrochloride]", "pIC50", 6.45),
    ("CC1(C)O[C@@H]2C[C@H]3[C@@H]4CCC5=CC(=O)C=C[C@]5(C)[C@@]4(F)[C@@H](O)C[C@]3(C)[C@]2(C(=O)COC(=O)CCC(=O)OCc2ccc([C@@H](CN)C(=O)Nc3ccc4cnccc4c3)cc2)O1", "pIC50", 7.12),
]

Okay, now this compound:
What value of measured pIC50 is listed for C[C@@H]1C[C@H]2[C@@H]3CCC4=CC(=O)C=C[C@]4(C)[C@@]3(F)[C@@H](O)C[C@]2(C)[C@@]1(O)C(=O)COC(=O)CCC(=O)OCc1ccc([C@@H](CN)C(=O)Nc2ccc3cnccc3c2)cc1 ?
6.53

###

Structures can show the parent of a compound that is named as a salt.
# IC50 per entry for JAK2 (Homo sapiens (Human), UniProt O60674)
Expressed in µM, but write only the number.

# molecule, value.units, assay.result
data = [
    ("C[C@@H]1C[C@H]2[C@@H]3CCC4=CC(=O)C=C[C@]4(C)[C@@]3(F)[C@@H](O)C[C@]2(C)[C@@]1(O)C(=O)COC(=O)c1ccc(C(=O)OCc2ccc([C@@H](CN)C(=O)Nc3ccc4cnccc4c3)cc2)cc1 [Example 66, dihydrochloride]", "µM", 36.2),
    ("CC1(C)O[C@@H]2C[C@H]3[C@@H]4CCC5=CC(=O)C=C[C@]5(C)[C@@]4(F)[C@@H](O)C[C@]3(C)[C@]2(C(=O)COC(=O)CCC(=O)OCc2ccc([C@@H](CN)C(=O)Nc3ccc4cnccc4c3)cc2)O1", "µM", 42.4),
]

What value of measured IC50 is listed for C[C@@H]1C[C@H]2[C@@H]3CCC4=CC(=O)C=C[C@]4(C)[C@@]3(F)[C@@H](O)C[C@]2(C)[C@@]1(O)C(=O)COC(=O)C[C@H](N)C(=O)OCc1ccc([C@@H](CN)C(=O)Nc2ccc3cnccc3c2)cc1 [Example 83, trihydrochloride] ?
22

What value of measured IC50 is listed for C[C@@H]1C[C@H]2[C@@H]3CCC4=CC(=O)C=C[C@]4(C)[C@@]3(F)[C@@H](O)C[C@]2(C)[C@@]1(O)C(=O)COC(=O)CCC(=O)OCc1ccc([C@@H](CN)C(=O)Nc2ccc3cnccc3c2)cc1 ?
40.9

What value of measured IC50 is listed for C[C@@H]1C[C@H]2[C@@H]3CCC4=CC(=O)C=C[C@]4(C)[C@@]3(F)[C@@H](O)C[C@]2(C)[C@@]1(O)C(=O)COC(=O)C1CC1C(=O)OCc1ccc([C@@H](CN)C(=O)Nc2ccc3cnccc3c2)cc1 (some centres unmarked) ?
41.7

###

Counter-ions that a name gives are not always drawn.
# pIC50 per entry for ROCK2 (Homo sapiens (Human))
Lab note: report pIC50 as minus log10 of the concentration in molar units, number only.

Use these answered entries as a reference point.
# molecule, assay.result
rows = [
    ("CC1(C)O[C@@H]2C[C@H]3[C@@H]4CCC5=CC(=O)C=C[C@]5(C)[C@@]4(F)[C@@H](O)C[C@]3(C)[C@]2(C(=O)COC(=O)CCC(=O)OCc2ccc([C@@H](CN)C(=O)Nc3ccc4cnccc4c3)cc2)O1 [Example 33]", 7.85),
    ("C[C@@H]1C[C@H]2[C@@H]3CCC4=CC(=O)C=C[C@]4(C)[C@@]3(F)[C@@H](O)C[C@]2(C)[C@@]1(O)C(=O)COC(=O)C[C@H](N)C(=O)OCc1ccc([C@@H](CN)C(=O)Nc2ccc3cnccc3c2)cc1 [Example 83, trihydrochloride]", 8.05),
    ("CC1(C)O[C@@H]2C[C@H]3[C@@H]4C[C@H](F)C5=CC(=O)C=C[C@]5(C)[C@@]4(F)[C@@H](O)C[C@]3(C)[C@]2(C(=O)COC(=O)CCC(=O)OCc2ccc([C@@H](CN)C(=O)Nc3ccc4cnccc4c3)cc2)O1 [Example 40]", 7.89),
]

Observed pIC50 on ROCK2 (Homo sapiens (Human)) for C[C@]12C=CC(=O)C=C1CC[C@@H]1[C@@H]2[C@@H](O)C[C@@]2(C)[C@H]1CC[C@]2(O)C(=O)COC(=O)C1CC1C(=O)OCc1ccc([C@@H](CN)C(=O)Nc2ccc3cnccc3c2)cc1 (stereo partly shown) [Example 19] , please.
Sequence (O75116 whole entry, species assumed): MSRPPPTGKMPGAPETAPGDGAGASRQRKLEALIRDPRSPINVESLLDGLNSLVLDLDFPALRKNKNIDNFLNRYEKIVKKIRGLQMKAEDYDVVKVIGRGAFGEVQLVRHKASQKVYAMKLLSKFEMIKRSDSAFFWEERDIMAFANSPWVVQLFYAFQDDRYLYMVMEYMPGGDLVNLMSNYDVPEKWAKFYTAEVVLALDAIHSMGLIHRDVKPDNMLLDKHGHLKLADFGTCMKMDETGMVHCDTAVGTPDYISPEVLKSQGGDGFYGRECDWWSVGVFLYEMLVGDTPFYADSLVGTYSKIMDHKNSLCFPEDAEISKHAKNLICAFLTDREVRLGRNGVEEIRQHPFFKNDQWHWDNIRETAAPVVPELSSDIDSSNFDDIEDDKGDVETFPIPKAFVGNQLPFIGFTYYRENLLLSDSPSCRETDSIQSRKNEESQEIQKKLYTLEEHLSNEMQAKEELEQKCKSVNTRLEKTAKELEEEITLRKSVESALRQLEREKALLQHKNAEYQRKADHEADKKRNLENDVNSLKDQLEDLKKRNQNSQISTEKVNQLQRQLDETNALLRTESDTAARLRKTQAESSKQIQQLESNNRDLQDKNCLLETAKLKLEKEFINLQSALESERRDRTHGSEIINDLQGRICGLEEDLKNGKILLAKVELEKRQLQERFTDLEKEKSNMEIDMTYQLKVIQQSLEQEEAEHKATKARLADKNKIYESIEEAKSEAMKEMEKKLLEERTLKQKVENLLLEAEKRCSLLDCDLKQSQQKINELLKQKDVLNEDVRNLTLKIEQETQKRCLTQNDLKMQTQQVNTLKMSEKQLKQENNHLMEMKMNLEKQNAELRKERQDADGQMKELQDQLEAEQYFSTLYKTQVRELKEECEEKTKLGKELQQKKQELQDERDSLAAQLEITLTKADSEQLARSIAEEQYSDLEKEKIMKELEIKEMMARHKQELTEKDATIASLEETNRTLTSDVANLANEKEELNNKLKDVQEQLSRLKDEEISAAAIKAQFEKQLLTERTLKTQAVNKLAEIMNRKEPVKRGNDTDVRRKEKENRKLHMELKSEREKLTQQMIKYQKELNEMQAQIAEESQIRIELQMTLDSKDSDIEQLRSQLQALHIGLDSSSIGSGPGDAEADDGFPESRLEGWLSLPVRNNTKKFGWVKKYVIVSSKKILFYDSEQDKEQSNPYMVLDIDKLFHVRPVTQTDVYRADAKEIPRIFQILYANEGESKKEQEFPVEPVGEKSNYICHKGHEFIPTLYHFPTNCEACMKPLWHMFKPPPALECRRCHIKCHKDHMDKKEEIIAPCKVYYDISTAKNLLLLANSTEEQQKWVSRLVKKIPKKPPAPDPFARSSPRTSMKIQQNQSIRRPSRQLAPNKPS
7.57

###

# IC50 per entry for UniProt Q13464
# Sequence (Q13464 whole entry, species assumed): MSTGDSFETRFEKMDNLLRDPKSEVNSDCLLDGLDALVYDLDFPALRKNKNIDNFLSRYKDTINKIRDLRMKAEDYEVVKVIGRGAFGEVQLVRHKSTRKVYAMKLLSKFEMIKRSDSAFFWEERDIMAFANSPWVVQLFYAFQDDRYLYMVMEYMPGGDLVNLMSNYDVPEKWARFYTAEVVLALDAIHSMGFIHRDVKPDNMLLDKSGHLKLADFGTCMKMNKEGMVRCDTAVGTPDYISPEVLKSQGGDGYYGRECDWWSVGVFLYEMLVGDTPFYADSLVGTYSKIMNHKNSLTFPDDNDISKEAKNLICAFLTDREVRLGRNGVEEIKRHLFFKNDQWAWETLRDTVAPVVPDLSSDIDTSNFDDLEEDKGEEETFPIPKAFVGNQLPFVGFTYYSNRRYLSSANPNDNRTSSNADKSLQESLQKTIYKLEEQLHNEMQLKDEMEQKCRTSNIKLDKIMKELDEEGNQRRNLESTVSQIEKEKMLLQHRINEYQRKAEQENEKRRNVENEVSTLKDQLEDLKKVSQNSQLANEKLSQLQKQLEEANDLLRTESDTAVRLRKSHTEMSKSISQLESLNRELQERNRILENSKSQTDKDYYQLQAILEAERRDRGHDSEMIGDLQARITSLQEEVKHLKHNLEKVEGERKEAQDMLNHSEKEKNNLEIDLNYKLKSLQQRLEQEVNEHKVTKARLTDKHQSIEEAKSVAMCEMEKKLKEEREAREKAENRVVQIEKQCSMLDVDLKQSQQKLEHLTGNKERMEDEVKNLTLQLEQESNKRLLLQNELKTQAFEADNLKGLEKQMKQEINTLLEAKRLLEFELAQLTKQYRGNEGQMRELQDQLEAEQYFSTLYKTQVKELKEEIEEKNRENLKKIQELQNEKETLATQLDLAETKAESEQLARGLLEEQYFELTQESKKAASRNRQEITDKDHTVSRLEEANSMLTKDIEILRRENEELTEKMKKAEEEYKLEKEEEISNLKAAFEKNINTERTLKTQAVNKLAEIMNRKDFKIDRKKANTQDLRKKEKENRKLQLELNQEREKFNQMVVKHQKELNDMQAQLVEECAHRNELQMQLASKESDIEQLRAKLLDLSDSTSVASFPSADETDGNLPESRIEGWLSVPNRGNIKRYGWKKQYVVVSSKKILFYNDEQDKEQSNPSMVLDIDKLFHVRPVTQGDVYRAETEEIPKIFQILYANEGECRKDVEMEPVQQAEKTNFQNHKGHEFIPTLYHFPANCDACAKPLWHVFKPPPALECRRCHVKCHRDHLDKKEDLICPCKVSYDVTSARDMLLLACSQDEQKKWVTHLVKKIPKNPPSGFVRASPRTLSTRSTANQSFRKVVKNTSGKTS
Structures can show the parent of a compound that is named as a salt.
Expressed in nM, but write only the number.

Use these answered entries as a reference point.
# molecule, value.units, assay.result
measured = [
    ("C[C@@H]1C[C@H]2[C@@H]3CCC4=CC(=O)C=C[C@]4(C)[C@@]3(F)[C@@H](O)C[C@]2(C)[C@@]1(O)C(=O)COC(=O)c1ccc(C(=O)OCc2ccc([C@@H](CN)C(=O)Nc3ccc4cnccc4c3)cc2)cc1 [Example 66, dihydrochloride]", "nM", 36),
    ("CC1(C)O[C@@H]2C[C@H]3[C@@H]4CCC5=CC(=O)C=C[C@]5(C)[C@@]4(F)[C@@H](O)C[C@]3(C)[C@]2(C(=O)COC(=O)CCC(=O)OCc2ccc([C@@H](CN)C(=O)Nc3ccc4cnccc4c3)cc2)O1 [Example 33]", "nM", 21),
]

Okay, now this molecule:
What value of measured IC50 is listed for C[C@@H]1C[C@H]2[C@@H]3CCC4=CC(=O)C=C[C@]4(C)[C@@]3(F)[C@@H](O)C[C@]2(C)[C@@]1(O)C(=O)COC(=O)C1CC1C(=O)OCc1ccc([C@@H](CN)C(=O)Nc2ccc3cnccc3c2)cc1 (stereo partly drawn) [Example 27] ?
29

###

Examples of molecules with documented pIC50 follow.
Biological target: IKKb (Homo sapiens (Human), UniProt O14920)
Sequence (O14920 whole entry, species assumed): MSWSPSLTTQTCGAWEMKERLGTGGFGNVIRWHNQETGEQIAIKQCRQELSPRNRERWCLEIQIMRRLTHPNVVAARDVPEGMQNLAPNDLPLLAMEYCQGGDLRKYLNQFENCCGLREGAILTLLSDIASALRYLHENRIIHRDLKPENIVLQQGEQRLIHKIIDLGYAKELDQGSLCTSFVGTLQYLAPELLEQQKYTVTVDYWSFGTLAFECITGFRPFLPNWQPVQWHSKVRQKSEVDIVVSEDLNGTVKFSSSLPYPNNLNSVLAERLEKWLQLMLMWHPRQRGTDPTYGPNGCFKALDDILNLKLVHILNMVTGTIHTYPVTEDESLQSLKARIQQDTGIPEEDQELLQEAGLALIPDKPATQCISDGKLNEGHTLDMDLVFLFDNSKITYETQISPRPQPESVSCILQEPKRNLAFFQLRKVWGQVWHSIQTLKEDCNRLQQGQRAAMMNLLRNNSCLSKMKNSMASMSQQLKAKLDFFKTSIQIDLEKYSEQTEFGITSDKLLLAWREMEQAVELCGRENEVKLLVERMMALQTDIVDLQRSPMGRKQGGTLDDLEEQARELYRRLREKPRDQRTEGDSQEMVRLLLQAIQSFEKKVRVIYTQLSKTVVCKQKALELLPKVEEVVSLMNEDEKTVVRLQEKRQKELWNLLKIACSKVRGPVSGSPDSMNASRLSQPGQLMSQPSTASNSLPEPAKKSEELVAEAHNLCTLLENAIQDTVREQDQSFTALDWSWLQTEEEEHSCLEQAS
Test: Kinase assay IKKb
Assay type: biochemical
Settings: HCl salt
Lab note: report pIC50 as minus log10 of the concentration in molar units, number only.

Observed pIC50 on IKKb (Homo sapiens (Human), UniProt O14920) for CC1(C)O[C@@H]2C[C@H]3[C@@H]4CCC5=CC(=O)C=C[C@]5(C)[C@@]4(F)[C@@H](O)C[C@]3(C)[C@]2(C(=O)COC(=O)CCC(=O)OCc2ccc([C@@H](CN)C(=O)Nc3ccc4cnccc4c3)cc2)O1 , please.
4.40
